Molecular target: α-1B adrenoceptor (rat spleen) (Rattus norvegicus)
Construct: PE-induced contraction of rat spleen; from tissue; host or cells: isolated rat spleen
Experiment: Functional antagonism of phenylephrine-induced contraction of rat spleen
Assay type: cell-based
Details: vs phenylephrine-induced contraction, Schild plot; read-out: pA2 Rat Spleen [α-1B] (converted)
Structures can show the parent of a compound that is named as a salt.
measured_property: Kb (nM)

COc1cccc2c1CC[C@H]1CN(CCn3c(=O)[nH]c4cscc4c3=O)C[C@@H]21 (relative stereo) [Example 8, hydrochloride]	5.5

(a) CCc1cccc2c1CC[C@H]1CN(CCn3c(=O)[nH]c4cc(OC)c(OC)cc4c3=O)C[C@@H]21 [Example 83, hydrochloride]
(b) COc1cccc2c1CC[C@H]1CN(CCn3c(=O)[nH]c4ccsc4c3=O)C[C@@H]21 (relative stereo) [Example 5, hydrochloride]
Higher Kb: a or b ? State the label of the item chosen. a

* * *

Target: α-1B adrenoceptor (rat spleen) (Rattus norvegicus, UniProt P15823)
Construct: PE-induced contraction of rat spleen; from tissue; host or cells: isolated rat spleen
Sequence (P15823 whole entry): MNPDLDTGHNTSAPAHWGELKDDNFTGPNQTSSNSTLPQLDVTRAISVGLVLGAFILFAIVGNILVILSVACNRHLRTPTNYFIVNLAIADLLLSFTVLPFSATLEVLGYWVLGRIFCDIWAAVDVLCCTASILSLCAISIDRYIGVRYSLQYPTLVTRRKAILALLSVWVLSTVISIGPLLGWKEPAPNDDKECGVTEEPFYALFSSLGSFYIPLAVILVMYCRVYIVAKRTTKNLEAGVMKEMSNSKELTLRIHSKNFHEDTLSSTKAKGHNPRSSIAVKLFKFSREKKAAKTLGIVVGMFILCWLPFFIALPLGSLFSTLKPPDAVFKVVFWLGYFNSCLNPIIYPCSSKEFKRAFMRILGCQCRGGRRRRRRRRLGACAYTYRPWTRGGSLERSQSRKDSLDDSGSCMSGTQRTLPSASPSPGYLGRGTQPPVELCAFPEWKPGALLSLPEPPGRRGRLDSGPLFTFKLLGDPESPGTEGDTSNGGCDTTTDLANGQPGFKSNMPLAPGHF
Experiment: Functional antagonism of phenylephrine-induced contraction of rat spleen
Type: cell-based
Details: vs phenylephrine-induced contraction, Schild plot; read-out: pA2 Rat Spleen [α-1B] (converted)
Structures can show the parent of a compound that is named as a salt.
measured_property: Kb (nM)

COc1cccc2c1CC[C@H]1CN(CCn3c(=O)[nH]c4c(OC)cccc4c3=O)C[C@@H]21 (relative stereo) [Example 9, hydrochloride]	8.91
COc1cccc2c1CC[C@H]1CN(CCn3c(=O)[nH]c4cccc(C)c4c3=O)C[C@@H]21 (relative stereo) [Example 12, hydrochloride]	6.76

(A) COc1cccc2c1CC[C@H]1CN(CCn3c(=O)[nH]c4c(C)csc4c3=O)C[C@@H]21 (relative stereo) [Example 2, hydrochloride]
(B) COc1cccc2c1CC[C@H]1CN(CCn3c(=O)[nH]c4sccc4c3=O)C[C@@H]21 (relative stereo) [Example 3, hydrochloride]
(C) COc1cc2[nH]c(=O)n(CCN3C[C@@H]4CCc5c(OC)cccc5[C@@H]4C3)c(=O)c2cc1OC (relative stereo) [Example 10, hydrochloride]
(D) COc1cccc2c1CC[C@H]1CN(CCn3c(=O)[nH]c4sccc4c3=O)C[C@@H]21 [Example 13, hydrochloride]
(E) COc1cc2ncn(CCN3C[C@@H]4CCc5c(OC)cccc5[C@@H]4C3)c(=O)c2cc1OC [Example 42, dihydrochloride]
Please give the order of these compounds when sorted by Kb, largest value leading. Your task in answering is to list the labels in the requested order. C, E, B, A, D

* * *

Target: α-1A adrenoceptor (dog prostate)
Construct: from tissue; host or cells: canine prostate strips
Sequence (P35348 whole entry): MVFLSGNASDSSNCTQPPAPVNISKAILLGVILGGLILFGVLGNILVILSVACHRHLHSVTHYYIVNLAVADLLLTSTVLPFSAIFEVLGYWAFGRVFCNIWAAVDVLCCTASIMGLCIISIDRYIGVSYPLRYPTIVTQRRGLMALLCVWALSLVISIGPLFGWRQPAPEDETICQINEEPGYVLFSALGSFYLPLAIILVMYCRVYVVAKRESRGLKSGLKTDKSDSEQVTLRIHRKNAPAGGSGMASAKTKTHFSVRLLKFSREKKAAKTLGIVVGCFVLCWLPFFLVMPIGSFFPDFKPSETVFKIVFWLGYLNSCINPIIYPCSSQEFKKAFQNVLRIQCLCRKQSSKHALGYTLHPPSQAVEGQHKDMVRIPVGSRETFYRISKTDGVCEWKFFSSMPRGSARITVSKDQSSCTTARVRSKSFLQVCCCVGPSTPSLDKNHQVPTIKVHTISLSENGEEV
Test: Functional antagonism of phenylephrine-induced contraction of canine prostate strips
Assay type: cell-based, dog (canine)
Settings: vs phenylephrine-induced contraction, Schild plot; read-out: pA2 Dog Prostate [α-1A] (converted)
Structures can show the parent of a compound that is named as a salt.
measured_property: Kb (nM)

See these solved cases before continuing.
COc1cccc2c1CC[C@H]1CN(CCn3c(=O)[nH]c4cscc4c3=O)C[C@@H]21 (relative stereo) [Example 8, hydrochloride]	0.457
COc1cccc2c1CC[C@H]1CN(CCn3c(=O)[nH]c4c(OC)c(OC)c(OC)cc4c3=O)C[C@@H]21 (relative stereo) [Example 18, hydrochloride]	4.17
COC(=O)c1cc2[nH]c(=O)n(CCN3C[C@@H]4CCc5c(OC)cccc5[C@@H]4C3)c(=O)c2s1 [Example 60, hydrochloride]	0.708
COc1cccc2c1CC[C@H]1CN(CCn3c(=O)[nH]c4cccnc4c3=O)C[C@@H]21 (relative stereo) [Example 22, hydrochloride]	1.51

(P) COc1cccc2c1CC[C@H]1CN(CCn3c(=O)[nH]c4ccc5c(c4c3=O)OCO5)C[C@@H]21 [Example 53, hydrochloride]
(Q) COc1cccc2c1CC[C@H]1CN(CCn3c(=O)[nH]c4scc(-c5ccccc5)c4c3=O)C[C@@H]21 (relative stereo) [Example 6, hydrochloride]
Given P and given Q , which shows the smaller recorded Kb? Lab note: record the label of whichever item you select. P
